# protocol_description: Primary qHTS for delayed death inhibitors of the malarial parasite plastid, 48 hour incubation
# condition_info: P. falciparum luciferase growth in erythrocytes; series mostly up to 28.7 µM
The campaign covered roughly 310,000 compounds. About 18,000 (5.8%) were called active. Roughly 22% stayed inconclusive and do not appear here. Calls follow the shape of the dose curve; as a rule, active = well fitted inhibition curve with a large enough effect; inconclusive = small, poorly fitted or top-dose-only effect, or another doubt; inactive = no such curve, though single readings can be large or run the other way. The sample holds actives, similar compounds and a random draw of the others, so the mix is not that of the screen.
Possible outcomes: active, inactive

>>> df
                                    compound  assigned_class
 0  O=C(NCC1CCCO1)c1cc(-c2ccccc2)nc2ccccc12 (stereo not given)        inactive
 1  CC1CC(C)CN(C(=O)COC(=O)c2ccc3ncsc3c2)C1 (stereo not given)        inactive
 2  CC(C)(C)c1ccc(C(CC(=O)O)NS(=O)(=O)Cc2ccccc2)cc1 (stereo not given)        inactive
 3      CC(=O)N1CCN(CC(c2ccccc2)c2ccccc2)CC1        inactive
 4   COCCn1c(SCC(=O)N2CCCCCC2)nc2c(c1=O)SCC2        inactive
 5            COc1ccc(OC)c(NC(=O)Cc2cccs2)c1        inactive
 6  Cc1ccc(CC2CC(=O)N(c3cc(C)ccc3C)C2=O)cc1 (stereo not given)        inactive
 7  COc1ccc2ccccc2c1/C=N/NC(=O)c1cc(C)[nH]n1        inactive
 8  C/C(=N\Nc1nncc2ccccc12)c1ccc(Cl)c([N+](=O)[O-])c1        inactive
 9  COc1ccccc1C(=O)COC(=O)CSCC(=O)Nc1cc(C)on1        inactive
10  O=C(NNS(=O)(=O)c1ccc(F)cc1)c1ccc([N+](=O)[O-])cc1Cl        inactive
11          CCCc1ccc(OCCNC(=O)c2ccccc2Br)cc1        inactive
12  COc1ccc(OC)c(S(=O)(=O)n2c([N+](=O)[O-])cnc2C)c1        inactive
13  COC(=O)c1[nH]c2ccc(Br)cc2c1NC(=O)Oc1ccccc1        inactive
14  Cc1ccc(NC(=O)CSc2nn3c(=O)c(C)nnc3s2)cc1Cl          active
15  S=C(NCC1CCCO1)N1CCN(c2ccc(Cl)c(Cl)c2)CC1 (stereo not given)        inactive
16       CC(C)Oc1ccc(Oc2ccc(C(F)(F)F)cn2)cc1        inactive
17  CCOc1ccc(S(=O)(=O)NCCC(=O)NCC2CCCO2)cc1 (stereo not given)        inactive
18                     CC(=O)Nc1ccc(CC#N)cc1        inactive
19  COc1ccc(S(=O)(=O)N2CCC(C(=O)N3CCOCC3)CC2)cc1OC        inactive
20  C=CCn1c(C)cc(C(=O)CN2C(=O)c3ccccc3C2=O)c1C        inactive
21      COc1cccc2[nH]c(C(=O)NCCc3ccccc3)cc12        inactive
22  Cc1ccc(C(=O)N(CC(=O)NC2CCCC2)c2ccc(F)cc2)s1        inactive
23  Cc1cc2c(c(=O)n1Cc1ccccc1)C1O[C@](CCCCN3C(=O)c4ccccc4C3=O)(Cc3ccccc31)O2          active
24  N#CCc1ccc(NC(=O)c2ccccc2C(=O)Nc2ccc(CC#N)cc2)cc1        inactive
25  CCOc1ccc(S(=O)(=O)N2CCN(C(=S)NCC3CCCO3)CC2)cc1 (stereo not given)          active
26  CCC1C(=O)NCCN1C(=O)c1ccc2nc(Cc3ccc(OC)cc3)oc2c1 (stereo not given)        inactive
27  COC(=O)c1[nH]c2ccccc2c1NC(=O)CN1CCCc2ccccc21          active
28  CCOc1ccc(NC(=S)N2CCC(N(C)CC3CCCO3)CC2)cc1 (stereo not given)        inactive
29   O=C(CCl)NNc1nc(-c2ccccc2)c2cc(Cl)ccc2n1        inactive
30  CCNS(=O)(=O)c1ccc(CCC(=O)N2CCN(c3ccc(OC)cc3)CC2)cc1        inactive
31  O=C(Nc1ccccc1C(=O)NCCCn1ccnc1)c1ccc(Cl)cc1Cl          active
32  CCn1c(C(O)c2cc(OC)ccc2OC)nc2ccccc21 (stereo not given)        inactive
33  CC(C)n1ncc2c(C(=O)NCc3ccccc3CN(C)C)cc(C3CC3)nc21          active
34    CNCC[C@H](Oc1ccc(C(F)(F)F)cc1)c1ccccc1          active
35                COCCNC(=O)COc1ccc(C)c(C)c1        inactive
36  CCS(=O)(=O)C1=NSC2=NC(=O)/C(=C\c3ccc(OS(=O)(=O)c4ccccc4)cc3)C(=N)N21        inactive
37  CCc1ccc(S(=O)(=O)N/N=C\c2ccc([N+](=O)[O-])o2)cc1        inactive
38  CCC(Oc1ccccc1C)C(=O)Nc1ccc(S(=O)(=O)Nc2cc(C)on2)cc1 (stereo not given)        inactive
39  O=C(Nc1ccc(S(=O)(=O)Nc2ccccn2)cc1)c1ccccc1        inactive
40  COc1ccc(CC(=O)OC(C)C(=O)Nc2ccc(S(N)(=O)=O)cc2)cc1 (stereo not given)        inactive
41  Cn1nccc1C(=O)N1CCCC(C(=O)c2ccc(Oc3ccccc3)cc2)C1 (stereo not given)        inactive
42           O=C(NCCCn1ccnc1)Nc1ccc(Cl)cc1Cl        inactive
43  CC(=O)NC(CC(=O)Nc1nc(-c2ccccc2)c(C(C)=O)s1)c1ccccc1 (stereo not given)        inactive
44  CCN(CC(=O)NCc1cccs1)C(=O)c1ccc(OC)c(S(=O)(=O)N2CCOCC2)c1        inactive
